Quick reference: inhibition of the listed items.
- System tested: Ephrin type-B receptor 2 (Homo sapiens);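 also: reported as mean inhibition of EPHB2, from the GSK PKIS dataset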
- Sequence (whole entry): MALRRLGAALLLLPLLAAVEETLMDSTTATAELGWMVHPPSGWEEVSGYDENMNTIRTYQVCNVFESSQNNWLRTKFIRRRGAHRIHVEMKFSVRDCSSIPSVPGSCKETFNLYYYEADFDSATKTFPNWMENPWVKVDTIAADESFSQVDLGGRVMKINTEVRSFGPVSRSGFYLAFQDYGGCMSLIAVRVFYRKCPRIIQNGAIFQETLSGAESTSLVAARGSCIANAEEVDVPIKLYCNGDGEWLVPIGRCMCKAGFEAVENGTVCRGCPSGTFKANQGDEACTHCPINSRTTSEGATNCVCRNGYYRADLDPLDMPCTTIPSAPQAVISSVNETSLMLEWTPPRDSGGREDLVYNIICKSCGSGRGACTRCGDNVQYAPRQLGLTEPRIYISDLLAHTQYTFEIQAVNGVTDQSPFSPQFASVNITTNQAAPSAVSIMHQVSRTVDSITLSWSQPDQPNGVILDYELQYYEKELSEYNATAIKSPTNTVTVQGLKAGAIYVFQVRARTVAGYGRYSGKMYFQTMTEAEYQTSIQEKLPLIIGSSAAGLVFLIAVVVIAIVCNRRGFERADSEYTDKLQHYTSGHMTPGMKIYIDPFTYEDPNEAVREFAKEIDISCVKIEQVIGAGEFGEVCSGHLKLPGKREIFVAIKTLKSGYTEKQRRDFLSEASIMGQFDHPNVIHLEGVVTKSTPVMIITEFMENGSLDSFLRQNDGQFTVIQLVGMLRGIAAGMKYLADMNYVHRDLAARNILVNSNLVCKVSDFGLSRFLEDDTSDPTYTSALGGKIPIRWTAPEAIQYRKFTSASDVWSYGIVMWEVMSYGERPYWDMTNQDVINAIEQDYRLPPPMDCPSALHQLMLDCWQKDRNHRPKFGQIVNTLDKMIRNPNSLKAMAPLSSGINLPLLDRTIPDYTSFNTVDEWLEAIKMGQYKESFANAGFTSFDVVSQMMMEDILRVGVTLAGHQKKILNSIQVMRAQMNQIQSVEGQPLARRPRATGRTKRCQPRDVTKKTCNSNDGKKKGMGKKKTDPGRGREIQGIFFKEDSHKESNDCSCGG
- Condition description: at 0.1 µM
Output spec: scalar in %, unitless text.

See these solved cases before continuing.
COc1cc(N2CCN(C(C)C)CC2)ccc1Nc1nc(Nc2ccc(F)cc2C(=O)NC[C@@H](O)CO)c2cc[nH]c2n1 ... 3.1
Fc1ccc(-c2ncn(C3CCNCC3)c2-c2ccnc(Oc3ccc(F)c(F)c3)n2)cc1 ... 6.59
CCN(CC)Cc1ccc(Nc2nccc(-c3cnn4ncccc34)n2)cc1 ... 8.25
O=C(NCC1CC1)c1ccc(-c2cccc(C(=O)NC3CC3)c2)cc1 ... 6.78
O=C1NC(=O)C(c2cccc(Cl)c2)=C1Nc1ccc(Cl)c(C(=O)O)c1 ... 5.83

So for `FC(F)(F)c1cccc(Nc2nccc(-c3cnn4nc(-c5ccccc5)ccc34)n2)c1` , the logged inhibition turned out to be 4.58

inhibition for `COc1ccc2ncn(-c3cc(O[C@H](C)c4ccccc4Cl)c(C(N)=O)s3)c2c1` is 6.75

// field: inhibition; key: `CCS(=O)(=O)c1ccc(OC)c(Nc2ncc(-c3ccccc3Cl)o2)c1` ; value = 4.99

Entry `NC(=O)c1cc(-c2ccncc2)cc(-c2ccccc2)c1N` , inhibition reported as 16.5

Just so you know, measured inhibition for `CN1CCN(CCCNc2nc3ccc(Oc4ccc(NC(=O)Nc5cc(C(F)(F)F)ccc5F)cc4)cc3[nH]2)CC1` came out at 9.54

From: ChEMBL document CHEMBL1961873
